# system_under_test: T1, IHF from Klebsiella pneumoniae (Kp) (Klebsiella pneumoniae)
# T1 construct: Recombinant, His-tagged, made in HEK293 cells; also called IHF (Kp)
# measurement_description: ELISA
The entries below come with measured OD values attached.
measured_endpoint: OD (OD)

[
  {
    "binder": "TRL1215 (antibody, V domains shown) VH: QVQLVESGTEVKNPGASVKVSCTASGYKFDEYGVSWVRQSPGQGLEWMGWISVYNGKTNYSQNFQGRLTLTTETSTDTAYMELTSLRPDDTAVYYCATDKNWFDPWGPGTLVTVSS VL: DIVMTQSPSASGSPGQSITISCTGTNTDYNYVSWYQHHPGKAPKVIIYDVKKRPSGVPSRFSGSRSGNTATLTVSGLQTEDEADYYCVSYADNNHYVFGSGTKVTVL",
    "reported_measurement": 1.6
  },
  {
    "binder": "TRL1232 (antibody, V domains shown) VH: QVQLVESGAEVKKPGALVKVSCKASGYTFSGYYMHWVRQAPGQGLEWMGWINPKSGGTKYAQKFQGRVTMTRDTSISTAYMELSRLRSDDTAVYFCARGGPSNLERFLERLQPRYSYDDKYAMDVWGQGTTVTVSS VL: DIVMTQSPGTLSLSPGARATLSCRASQSVSSIYLAWYQQKPGQAPRLLIFGASSRATGIPDRFSGSGSGTDFTLTISRLEPEDFAVYYCQQYGSSPYTFGQGTKLEIKR",
    "reported_measurement": 0.1
  },
  {
    "binder": "TRL1230 (antibody, V domains shown) VH: QVQLVQSGGGLVKPGGSLRLSCGASGFNLSSYSMNWVRQAPGKGLEWVSSISSRSSYIYYADSVQGRFTISRDNAKNSLYLQMNSLRAEDTAIYYCARVSPSTYYYYGMDVWGQGTTVTVSS VL: DIVLTQPSSVSVSPGQTARITCSGDELPKQYAYWYQQKPGQAPVLVIYKDNERPSGIPERFSGSSSGTTVTLTISGVQAEDEADYYCQSADSSGTYVVFGGGTKLTVL",
    "reported_measurement": 0.07
  },
  {
    "binder": "TRL1070 (antibody, V domains shown) VH: QVQLVQSGGTLVQPGGSLRLSCAASGFTFSYYSMSWVRQAPGKGLEWVANIKHDGTERNYVDSVKGRFTISRDNSEKSLYLQMNSLRAEDTAVYYCAKYYYGAGTNYPLKYWGQGTRVTVSS VL: DILMTQSPSSLSASVGDRVTITCRASQGIRNDLGWYQQKPGKAPKLLIYAASSLQSGVPSRFSGSGSGTDFTLTISSLQPEDFATYYCLQDYNYPLTFGGGTKVEIKR",
    "reported_measurement": 0.5
  }
]
